Field: IC50. System: UniProt P06213. Provenance: assorted publications.
VALUE_TYPE: IC50 (nM)

Previously resolved entries follow.
[
  {
    "COMPOUND_STRUCTURE_STRING": "COc1cc(N2CCC(N3CCN(C)CC3)CC2)ccc1Nc1ncc(Cl)c(Nc2ccccc2C(C)=O)n1",
    "MEASURED_ON": "UniProt P06213",
    "IC50 / nM": 2.16
  },
  {
    "COMPOUND_STRUCTURE_STRING": "COc1cc(OC2CCN(C)CC2)ccc1Nc1ncc(Cl)c(Nc2ccccc2P(C)(C)=O)n1",
    "MEASURED_ON": "UniProt P06213",
    "IC50 / nM": 343
  }
]

a: C[C@H](c1cc(F)cc(F)c1)c1ccc2[nH]nc(NC(=O)c3ccc(N4CCN(C)CC4)cc3NC3CCOCC3)c2c1
b: COc1cc(P(C)(C)=O)ccc1Nc1ncc(Cl)c(Nc2ccccc2P(C)(C)=O)n1
c: CC(C)(O)Cn1/c(=N/C(=O)c2ccc(-c3cn[nH]c3)s2)[nH]c2cc(CN3CCOCC3)ccc21
Rank items: key IC50, increasing. Answer format: the labels, in the requested order.
c, b, a

----------
Compiled notes: published IC50 values involving Insulin receptor (Homo sapiens, UniProt P06213).
VALUE_TYPE: IC50 (µM)

Please review the following examples before continuing.
[
  {
    "COMPOUND": "O=C(NO)c1ccc(-c2ccc3ncnc(Nc4ccc(OCc5cccc(F)c5)c(Cl)c4)c3c2)o1",
    "REPORTED": 1.4
  },
  {
    "COMPOUND": "CC(C)CNCc1ccc2c(c1)nc(NC(=O)c1ccc(-c3cn[nH]c3)s1)n2CC(C)(C)O",
    "REPORTED": 0.36
  },
  {
    "COMPOUND": "CC1CCN(c2nc3c(c(Nc4cc(C5CC5)[nH]n4)n2)CCC3)CC1",
    "REPORTED": 0.11
  },
  {
    "COMPOUND": "COc1cc(N2CCC(N3CCN(C)CC3)CC2)ccc1Nc1ncc(Cl)c(Nc2ccccc2S(=O)(=O)N(C)C)n1",
    "REPORTED": 0.00844
  },
  {
    "COMPOUND": "COc1cc(N2CCN(C3CCN(C)CC3)CC2)ccc1Nc1ncc(Cl)c(Nc2ccccc2P(C)(C)=O)n1",
    "REPORTED": 0.285
  },
  {
    "COMPOUND": "Nc1ccccc1NC(=O)c1ccc(-c2ccc3ncnc(Nc4ccc(OCc5cccc(F)c5)c(Cl)c4)c3c2)s1",
    "REPORTED": 2.5
  },
  {
    "COMPOUND": "CC(C)(O)Cn1c(NC(=O)c2ccc(-c3cn[nH]c3)s2)nc2cc(CN)ccc21",
    "REPORTED": 1.2
  },
  {
    "COMPOUND": "C=CC(=O)Nc1cc(Nc2ncc(Cl)c(-c3cnn4ccccc34)n2)c(OC)cc1N(C)CCN(C)C",
    "REPORTED": 0.009
  },
  {
    "COMPOUND": "COc1cc(C)c(Sc2cnc(NC(=O)c3ccc(CNC(C)C(C)(C)C)cc3)s2)cc1C(=O)N1CCN(C(C)=O)CC1 (stereo unspecified)",
    "REPORTED": 1.1
  },
  {
    "COMPOUND": "COCCN1CCc2ccc(Nc3ncc(Cl)c(N[C@@H]4CCCC[C@H]4NS(C)(=O)=O)n3)cc2CC1",
    "REPORTED": 0.54
  }
]

a: CN1CCN(c2ccc(Nc3ncc4ccn(C5CCCCC5)c4n3)cc2)CC1
b: Cc1nc2cc(-c3cnc(O)c(C(=O)Nc4ccc(CN5CCN(C)CC5)cc4)c3)ccc2s1
// which entry reports the smaller IC50, a or b ? Refer to your chosen entry by its label in the reply.
a
(a: 1 µM, b: 16 µM)

a: CC1(C)OCC(=O)Nc2cc(Nc3nc(NCC(F)(F)F)c4occc4n3)ccc21
b: c1ccc2sc(-c3ccc(Nc4ncnc5[nH]ccc45)cc3)nc2c1
c: CCN1C(=O)CCCc2c1ccc(Nc1ncc(Cl)c(N[C@H]3[C@@H](C(N)=O)[C@@H]4C=C[C@H]3C4)n1)c2OC
Given 3 compounds, produce a descending ranking by IC50. Reply with the item labels sorted in the order that was asked for.
b, a, c
(b: 6.95 µM, a: 2.13 µM, c: 0.597 µM)

a: CC(C)(O)Cn1/c(=N/C(=O)c2ccc(-c3cn[nH]c3)s2)[nH]c2cc(CN3CCC(O)C3)ccc21 (stereo unspecified)
b: O=C(NCCc1ccc(O)c(Br)c1)/C(Cc1cc(Br)c(O)c(Oc2ccc(CCNC(=O)/C(Cc3cc(Br)c(O)c(-c4cc(C/C(=N\O)C(=O)NCCc5ccc(O)c(Br)c5)cc(Br)c4O)c3)=N/O)cc2Br)c1)=N/O
Parameter metric = IC50. Return the lower-valued option from a and b . Indicate which entry you chose by stating its label.
a
(a: 0.42 µM, b: 1.4 µM)
